Biological target: UniProtKB P46092
Sequence (P46092 whole entry): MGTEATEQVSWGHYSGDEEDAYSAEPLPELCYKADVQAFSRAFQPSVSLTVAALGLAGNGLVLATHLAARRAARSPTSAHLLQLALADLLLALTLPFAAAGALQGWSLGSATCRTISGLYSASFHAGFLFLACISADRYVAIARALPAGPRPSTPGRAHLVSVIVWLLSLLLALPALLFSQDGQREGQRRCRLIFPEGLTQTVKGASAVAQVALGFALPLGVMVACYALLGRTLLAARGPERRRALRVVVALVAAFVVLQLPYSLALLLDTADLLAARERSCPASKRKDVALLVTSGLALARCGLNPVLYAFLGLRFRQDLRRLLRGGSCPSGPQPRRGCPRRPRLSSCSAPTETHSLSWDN
Test: Antagonist activity at human CCR10 expressed in human U2OS cells assessed as inhibition of CCL27-induced beta-arrestin recruitment pre-incubated for 30 mins before CCL27 stimulation for 90 or 180 mins by chemiluminescence method
Square brackets hold non-standard residues; d marks the D form. Peptide text beside a SMILES is read from it. * marks the point of attachment. X1 = CC[C@H](C)[C@@H](OC(=O)/C=C/c1ccccc1)C(=O)*; X3 = CC[C@H](C)[C@@H](OC(=O)/C=C\c1ccccc1)C(=O)*; X2 = CC[C@H](C)[C@@H](OC(=O)CCc1ccccc1)C(=O)*; dNMeF = CN[C@H](Cc1ccccc1)C(=O)O; NMeL = CN[C@@H](CC(C)C)C(=O)O
Property: IC50; scope: individual compounds
Numbers only; they are read as µM.

See these solved cases before continuing.
CC[C@H](C)[C@@H](OC(=O)/C=C\c1ccccc1)C(=O)N1CCC[C@H]1C(=O)NCC(=O)N(C)[C@@H](CC(C)C)C(=O)N[C@@H](C)C(=O)N(C)[C@H](Cc1ccccc1)C(=O)N1CCC[C@H]1C(=O)OC (X3-PG[NMeL]A[dNMeF]P-OMe) = 2.71
CC[C@H](C)[C@@H](OC(=O)/C=C/c1ccccc1)C(=O)N1CCC[C@H]1C(=O)NCC(=O)N(C)[C@@H](CC(C)C)C(=O)N[C@@H](C)C(=O)N(C)[C@H](Cc1ccccc1)C(=O)N1CCC[C@H]1C(=O)OC (X1-PG[NMeL]A[dNMeF]P-OMe) = 0.44

From here, focus on the item given below.
[in] GET /values?readout=IC50&item= CC[C@H](C)[C@@H](OC(=O)CCc1ccccc1)C(=O)N1CCC[C@H]1C(=O)NCC(=O)N(C)[C@@H](CC(C)C)C(=O)N[C@@H](C)C(=O)N(C)[C@H](Cc1ccccc1)C(=O)N1CCC[C@H]1C(=O)OC (X2-PG[NMeL]A[dNMeF]P-OMe)
[out] 3.14

----------
Property: pIC50; scope: individual molecules
Biological target: Somatostatin receptor type 3 (Homo sapiens)
Sequence (P32745 whole entry): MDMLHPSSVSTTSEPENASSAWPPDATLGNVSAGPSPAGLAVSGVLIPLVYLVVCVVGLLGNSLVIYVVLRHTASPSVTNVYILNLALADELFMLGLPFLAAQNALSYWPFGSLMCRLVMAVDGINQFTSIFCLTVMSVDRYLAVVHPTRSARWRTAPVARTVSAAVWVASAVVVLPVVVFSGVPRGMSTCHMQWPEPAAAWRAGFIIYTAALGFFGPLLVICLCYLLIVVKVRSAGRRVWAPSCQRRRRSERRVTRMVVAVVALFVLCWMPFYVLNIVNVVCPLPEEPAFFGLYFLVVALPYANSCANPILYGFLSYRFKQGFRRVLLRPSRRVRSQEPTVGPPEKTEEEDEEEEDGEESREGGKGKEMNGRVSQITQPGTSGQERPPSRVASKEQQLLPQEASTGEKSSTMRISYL
Experiment: Antagonist activity at human SSTR3 expressed in HEK293 cells assessed as [Tyr1]-somatostatin 14-induced beta-arrestin recruitment pre-incubated for 30 mins before [Tyr1]-somatostatin 14 stimulation for 90 or 180 mins by chemiluminescence method
pIC50: −log10 of the molar value. Square brackets hold non-standard residues; d marks the D form. Peptide text beside a SMILES is read from it. * marks the point of attachment. X1 = CC[C@H](C)[C@@H](OC(=O)/C=C/c1ccccc1)C(=O)*; X5 = CC[C@H](C)[C@@H](OC(=O)C#Cc1ccccc1)C(=O)*; Hmp(2R,3S) = CC[C@H](C)[C@@H](O)C(=O)O; dNMeF = CN[C@H](Cc1ccccc1)C(=O)O; NMeL = CN[C@@H](CC(C)C)C(=O)O

CC[C@H](C)[C@@H](OC(=O)C#Cc1ccccc1)C(=O)N1CCC[C@H]1C(=O)NCC(=O)N(C)[C@@H](CC(C)C)C(=O)N[C@@H](C)C(=O)N(C)[C@H](Cc1ccccc1)C(=O)N1CCC[C@H]1C(=O)OC (X5-PG[NMeL]A[dNMeF]P-OMe) = < 4.70

[in] GET /values?readout=pIC50&item= CC[C@H](C)[C@@H](OC(=O)/C=C/c1ccccc1)C(=O)N1CCC[C@H]1C(=O)NCC(=O)N(C)[C@@H](CC(C)C)C(=O)N[C@@H](C)C(=O)N(C)[C@H](Cc1ccccc1)C(=O)N1CCC[C@H]1C(=O)OC (X1-PG[NMeL]A[dNMeF]P-OMe)
[out] 5.51

[in] Param item: CC[C@H](C)[C@@H](O)C(=O)N1CCC[C@H]1C(=O)NCC(=O)N(C)[C@@H](CC(C)C)C(=O)N[C@@H](C)C(=O)N(C)[C@H](Cc1ccccc1)C(=O)N1CCC[C@H]1C(=O)OC ({Hmp(2R,3S)}-PG[NMeL]A[dNMeF]P-OMe)
[out] < 4.70

----------
Target: Substance-K receptor (Homo sapiens)
Sequence (P21452 whole entry): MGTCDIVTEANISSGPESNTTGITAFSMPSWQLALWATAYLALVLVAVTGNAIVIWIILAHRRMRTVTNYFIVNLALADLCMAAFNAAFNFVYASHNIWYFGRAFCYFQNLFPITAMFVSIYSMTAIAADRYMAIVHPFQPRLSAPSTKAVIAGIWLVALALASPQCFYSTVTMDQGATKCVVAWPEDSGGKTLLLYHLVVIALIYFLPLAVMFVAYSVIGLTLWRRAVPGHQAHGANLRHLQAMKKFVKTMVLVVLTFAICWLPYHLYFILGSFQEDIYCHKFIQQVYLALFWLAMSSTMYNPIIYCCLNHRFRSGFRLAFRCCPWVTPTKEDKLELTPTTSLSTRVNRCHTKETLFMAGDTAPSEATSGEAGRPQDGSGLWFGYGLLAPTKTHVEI
Experiment: Antagonist activity at human TACR2 expressed in CHOK1 cells assessed as substance P-induced beta-arrestin recruitment pre-incubated for 30 mins before substance P stimulation for 90 or 180 mins by chemiluminescence method
pIC50: −log10 of the molar value. Square brackets hold non-standard residues; d marks the D form. Peptide text beside a SMILES is read from it. * marks the point of attachment. X5 = CC[C@H](C)[C@@H](OC(=O)C#Cc1ccccc1)C(=O)*; Hmp(2R,3S) = CC[C@H](C)[C@@H](O)C(=O)O; dNMeF = CN[C@H](Cc1ccccc1)C(=O)O; NMeL = CN[C@@H](CC(C)C)C(=O)O; dHiv = CC(C)[C@@H](O)C(=O)O
Property: pIC50; scope: individual molecules

See these solved cases before continuing.
CC[C@H](C)[C@@H](OC(=O)C#Cc1ccccc1)C(=O)N1CCC[C@H]1C(=O)NCC(=O)N(C)[C@@H](CC(C)C)C(=O)N[C@@H](C)C(=O)N(C)[C@H](Cc1ccccc1)C(=O)N1CCC[C@H]1C(=O)OC (X5-PG[NMeL]A[dNMeF]P-OMe) = < 4.70
COC(=O)[C@@H]1CCCN1C(=O)[C@@H](Cc1ccccc1)N(C)C(=O)[C@H](C)NC(=O)[C@H](CC(C)C)N(C)C(=O)CNC(=O)[C@@H]1CCCN1C(=O)[C@H](O)C(C)C (H-[dHiv]PG[NMeL]A[dNMeF]P-OMe) = < 4.70

From here, focus on the item given below.
[in] GET /values?readout=pIC50&item= CC[C@H](C)[C@@H](O)C(=O)N1CCC[C@H]1C(=O)NCC(=O)N(C)[C@@H](CC(C)C)C(=O)N[C@@H](C)C(=O)N(C)[C@H](Cc1ccccc1)C(=O)N1CCC[C@H]1C(=O)OC ({Hmp(2R,3S)}-PG[NMeL]A[dNMeF]P-OMe)
[out] < 4.70

----------
Target: Atypical chemokine receptor 3 (Homo sapiens, UniProt P25106)
Sequence (P25106 whole entry): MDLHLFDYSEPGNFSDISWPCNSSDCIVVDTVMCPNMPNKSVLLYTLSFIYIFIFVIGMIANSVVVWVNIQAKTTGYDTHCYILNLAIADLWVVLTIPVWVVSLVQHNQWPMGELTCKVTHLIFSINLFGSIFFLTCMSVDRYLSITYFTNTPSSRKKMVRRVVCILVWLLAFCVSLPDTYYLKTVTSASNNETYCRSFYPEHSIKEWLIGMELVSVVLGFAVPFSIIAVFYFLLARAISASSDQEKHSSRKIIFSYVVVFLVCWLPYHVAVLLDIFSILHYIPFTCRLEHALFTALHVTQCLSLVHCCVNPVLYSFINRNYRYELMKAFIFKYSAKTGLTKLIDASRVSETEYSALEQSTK
Assay: Agonist activity at human CXCR7 expressed in CHOK1 cells assessed as induction of beta-arrestin recruitment by chemiluminescence method
Square brackets hold non-standard residues; d marks the D form. Peptide text beside a SMILES is read from it. * marks the point of attachment. X4 = CC[C@H](C)[C@@H](OC(=O)[C@H](Cc1ccccc1)N(C)C)C(=O)*; X1 = CC[C@H](C)[C@@H](OC(=O)/C=C/c1ccccc1)C(=O)*; X2 = CC[C@H](C)[C@@H](OC(=O)CCc1ccccc1)C(=O)*; dNMeF = CN[C@H](Cc1ccccc1)C(=O)O; NMeL = CN[C@@H](CC(C)C)C(=O)O
Property: EC50; scope: individual compounds
Numbers only; they are read as µM.

See these solved cases before continuing.
CC[C@H](C)[C@@H](OC(=O)/C=C/c1ccccc1)C(=O)N1CCC[C@H]1C(=O)NCC(=O)N(C)[C@@H](CC(C)C)C(=O)N[C@@H](C)C(=O)N(C)[C@H](Cc1ccccc1)C(=O)N1CCC[C@H]1C(=O)OC (X1-PG[NMeL]A[dNMeF]P-OMe) = 3.97
CC[C@H](C)[C@@H](OC(=O)[C@H](Cc1ccccc1)N(C)C)C(=O)N1CCC[C@H]1C(=O)NCC(=O)N(C)[C@@H](CC(C)C)C(=O)N[C@@H](C)C(=O)N(C)[C@H](Cc1ccccc1)C(=O)N1CCC[C@H]1C(=O)OC (X4-PG[NMeL]A[dNMeF]P-OMe) = 10.5

From here, focus on the item given below.
[in] GET /values?readout=EC50&item= CC[C@H](C)[C@@H](OC(=O)CCc1ccccc1)C(=O)N1CCC[C@H]1C(=O)NCC(=O)N(C)[C@@H](CC(C)C)C(=O)N[C@@H](C)C(=O)N(C)[C@H](Cc1ccccc1)C(=O)N1CCC[C@H]1C(=O)OC (X2-PG[NMeL]A[dNMeF]P-OMe)
[out] 7.81

----------
Biological target: Atypical chemokine receptor 3 (Homo sapiens)
Test: Agonist activity at human CXCR7 expressed in CHOK1 cells assessed as induction of beta-arrestin recruitment by chemiluminescence method
pEC50: −log10 of the molar value. Square brackets hold non-standard residues; d marks the D form. Peptide text beside a SMILES is read from it. * marks the point of attachment. X5 = CC[C@H](C)[C@@H](OC(=O)C#Cc1ccccc1)C(=O)*; Hmp(2R,3S) = CC[C@H](C)[C@@H](O)C(=O)O; dNMeF = CN[C@H](Cc1ccccc1)C(=O)O; NMeL = CN[C@@H](CC(C)C)C(=O)O; dHiv = CC(C)[C@@H](O)C(=O)O
Test readout: pEC50

See these solved cases before continuing.
CC[C@H](C)[C@@H](O)C(=O)N1CCC[C@H]1C(=O)NCC(=O)N(C)[C@@H](CC(C)C)C(=O)N[C@@H](C)C(=O)N(C)[C@H](Cc1ccccc1)C(=O)N1CCC[C@H]1C(=O)OC ({Hmp(2R,3S)}-PG[NMeL]A[dNMeF]P-OMe) = < 4.70
CC[C@H](C)[C@@H](OC(=O)C#Cc1ccccc1)C(=O)N1CCC[C@H]1C(=O)NCC(=O)N(C)[C@@H](CC(C)C)C(=O)N[C@@H](C)C(=O)N(C)[C@H](Cc1ccccc1)C(=O)N1CCC[C@H]1C(=O)OC (X5-PG[NMeL]A[dNMeF]P-OMe) = < 4.70

[in] GET /values?readout=pEC50&item= COC(=O)[C@@H]1CCCN1C(=O)[C@@H](Cc1ccccc1)N(C)C(=O)[C@H](C)NC(=O)[C@H](CC(C)C)N(C)C(=O)CNC(=O)[C@@H]1CCCN1C(=O)[C@H](O)C(C)C (H-[dHiv]PG[NMeL]A[dNMeF]P-OMe)
[out] < 4.70
